Molecular target: MCH-1R (Homo sapiens)
Sequence (Q99705 whole entry): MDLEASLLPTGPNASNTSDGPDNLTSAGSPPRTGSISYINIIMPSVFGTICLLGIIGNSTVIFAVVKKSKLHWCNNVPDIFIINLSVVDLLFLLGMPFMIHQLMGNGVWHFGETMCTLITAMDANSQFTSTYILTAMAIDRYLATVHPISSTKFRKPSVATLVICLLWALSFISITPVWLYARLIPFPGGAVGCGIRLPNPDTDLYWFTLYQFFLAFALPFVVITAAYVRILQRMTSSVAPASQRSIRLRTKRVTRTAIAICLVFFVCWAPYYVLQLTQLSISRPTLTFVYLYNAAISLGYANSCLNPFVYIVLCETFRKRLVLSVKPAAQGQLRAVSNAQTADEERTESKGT
Conditions: binding ratio
Residues, ends and D or L forms follow the SMILES beside them.
REPORTED ENDPOINT: Selectivity 2/1 (MCH-2R/MCH-1R IC50 binding ratio)

[
  {
    "MOLECULE": "CSCC[C@@H]1NC(=O)[C@@H](NC(=O)[C@@H](CCCCN)NC(C)=O)CSSC[C@@H](C(N)=O)NC(=O)[C@@H]2CCCN2C(=O)[C@H](CCCNC(=N)N)NC(=O)[C@H](Cc2ccc(O)cc2)NC(=O)[C@H](C(C)C)NC(=O)[C@H](CCCNC(=N)N)NC(=O)CNC(=O)[C@H](CC(C)C)NC1=O",
    "REPORTED": 3800
  },
  {
    "MOLECULE": "CSCC[C@@H]1NC(=O)[C@@H](NC(=O)[C@@H](CCCNC(=N)N)NC(C)=O)CSSC[C@@H](C(N)=O)NC(=O)[C@@H]2CCCN2C(=O)[C@H](CCCNC(=N)N)NC(=O)[C@H](Cc2ccc(O)cc2)NC(=O)[C@H](C(C)C)NC(=O)[C@H](CCCNC(=N)N)NC(=O)[C@H](CCC(N)=O)NC(=O)[C@H](CC(C)C)NC1=O [SEQ. ID. NO. 30] (HELM PEPTIDE1{[ac].[dR].C.M.L.Q.R.V.Y.R.P.C.[am]}$PEPTIDE1,PEPTIDE1,3:R3-12:R3$$$V2.0)",
    "REPORTED": 230
  },
  {
    "MOLECULE": "CSCC[C@@H]1NC(=O)[C@@H](NC(=O)[C@H](CCCNC(=N)N)NC(C)=O)CSSC[C@@H](C(N)=O)NC(=O)[C@@H]2CCCN2C(=O)[C@H](CCCNC(=N)N)NC(=O)[C@H](Cc2ccc(O)cc2)NC(=O)[C@H](C(C)C)NC(=O)[C@H](CCCNC(=N)N)NC(=O)[C@H](CC(C)C)NC(=O)[C@H](CC(C)C)NC1=O",
    "REPORTED": 1900
  },
  {
    "MOLECULE": "CSCC[C@@H]1NC(=O)[C@@H](NC(=O)[C@@H](CCCNC(=N)N)NC(C)=O)CSSC[C@@H](C(N)=O)NC(=O)[C@@H]2CCCN2C(=O)[C@H](CCCNC(=N)N)NC(=O)[C@H](Cc2ccc(O)cc2)NC(=O)[C@H](C(C)C)NC(=O)[C@H](CCCNC(=N)N)NC(=O)[C@H](CC(N)=O)NC(=O)[C@H](CC(C)C)NC1=O [SEQ. ID. NO. 29] (HELM PEPTIDE1{[ac].[dR].C.M.L.N.R.V.Y.R.P.C.[am]}$PEPTIDE1,PEPTIDE1,3:R3-12:R3$$$V2.0)",
    "REPORTED": 6600
  },
  {
    "MOLECULE": "CSCC[C@@H]1NC(=O)[C@@H](NC(=O)[C@H](CCCNC(=N)N)NC(C)=O)CSSC[C@@H](C(N)=O)NC(=O)[C@@H]2CCCN2C(=O)[C@H](CCCNC(=N)N)NC(=O)[C@H](Cc2ccc(O)cc2)NC(=O)[C@H](C(C)C)NC(=O)[C@H](CCCNC(=N)N)NC(=O)[C@H](C)NC(=O)[C@H](CC(C)C)NC1=O [SEQ. ID. NO. 16] (HELM PEPTIDE1{[ac].R.C.M.L.A.R.V.Y.R.P.C.[am]}$PEPTIDE1,PEPTIDE1,3:R3-12:R3$$$V2.0)",
    "REPORTED": 16
  },
  {
    "MOLECULE": "CSCC[C@@H]1NC(=O)[C@@H](NC(=O)[C@H](N)CCCNC(=N)N)CSSC[C@@H](C(N)=O)NC(=O)[C@@H]2CCCN2C(=O)[C@H](CCCNC(=N)N)NC(=O)[C@H](Cc2ccc(O)cc2)NC(=O)[C@H](C(C)C)NC(=O)[C@H](CCCNC(=N)N)NC(=O)CNC(=O)[C@H](CC(C)C)NC1=O",
    "REPORTED": 130
  },
  {
    "MOLECULE": "CSCC[C@@H]1NC(=O)[C@@H](NC(=O)[C@H](CCCNC(=N)N)NC(C)=O)CSSC[C@@H](C(N)=O)NC(=O)[C@@H]2CCCN2C(=O)[C@H](CCCNC(=N)N)NC(=O)[C@H](Cc2ccc(O)cc2)NC(=O)[C@H](C(C)C)NC(=O)[C@H](CCCNC(=N)N)NC(=O)[C@H](CC2CCCCC2)NC(=O)[C@H](CC(C)C)NC1=O",
    "REPORTED": 11
  },
  {
    "MOLECULE": "CSCC[C@@H]1NC(=O)[C@@H](NC(=O)[C@H](CCCNC(=N)N)NC(C)=O)CSSC[C@@H](C(N)=O)NC(=O)[C@@H]2CCCN2C(=O)[C@H](CCCNC(=N)N)NC(=O)[C@H](Cc2ccc(O)cc2)NC(=O)[C@H](C(C)C)NC(=O)[C@H](CCCNC(=N)N)NC(=O)[C@H](CCCNC(=N)N)NC(=O)[C@H](CC(C)C)NC1=O [SEQ. ID. NO. 23] (HELM PEPTIDE1{[ac].R.C.M.L.R.R.V.Y.R.P.C.[am]}$PEPTIDE1,PEPTIDE1,3:R3-12:R3$$$V2.0)",
    "REPORTED": 0.7
  },
  {
    "MOLECULE": "CSCC[C@@H]1NC(=O)[C@@H](NC(=O)[C@H](CCCNC(=N)N)NC(C)=O)CSSC[C@@H](C(N)=O)NC(=O)[C@@H]2CCCN2C(=O)[C@H](CCCNC(=N)N)NC(=O)[C@H](Cc2ccc(O)cc2)NC(=O)[C@H](C(C)C)NC(=O)[C@H](CCCNC(=N)N)NC(=O)[C@H](CCCCN)NC(=O)[C@H](CC(C)C)NC1=O",
    "REPORTED": 86
  },
  {
    "MOLECULE": "CSCC[C@@H]1NC(=O)[C@@H](NC(=O)[C@H](CCCNC(=N)N)NC(C)=O)CSSC[C@@H](C(N)=O)NC(=O)[C@@H]2CCCN2C(=O)[C@H](CCCNC(=N)N)NC(=O)[C@H](Cc2ccc(O)cc2)NC(=O)[C@H](C(C)C)NC(=O)[C@H](CCCNC(=N)N)NC(=O)[C@H](Cc2ccc3ccccc3c2)NC(=O)[C@H](CC(C)C)NC1=O",
    "REPORTED": 14
  }
]
